Target: HIV-1 fusion (gp160 induced cell-cell fusion; HeLa P4 cell line expressing CCR5 and CD4 / CHO-Tat10 cell line) (Homo sapiens)
Assay: gp160 induced cell-cell fusion assay
Assay type: cell-based
Conditions: HeLa P4 / CHO-Tat10 cells, read-out: IC50
OBSERVABLE: IC50
For clarity, give the value followed by its unit.

Ask: Hello, please tell me recorded IC50 for this one: COC(=O)N1CCc2nc(C)n(C3CCN(C(C)CC(NC(=O)C4CCC4)c4ccccc4)CC3)c2C1 (mixture of isomers)
Reply: 0.3 nM

Ask: Hello, please tell me recorded IC50 for this one: Cc1noc(C2CCN(C(C)C[C@H](NC(=O)C3CCC(F)(F)CC3)c3ccccc3)CC2)n1 (single isomer, unassigned) [Example 110]
Reply: 353 nM

Ask: Hello, please tell me recorded IC50 for this one: Cc1nc2c(n1C1CCN(C(C)C[C@H](NC(=O)CC(C)C)c3ccccc3)CC1)CN(C(=O)C(C)C)CC2 (single isomer, unassigned)
Reply: 79.2 nM

Ask: Hello, please tell me recorded IC50 for this one: COC(=O)N1CCc2nc(C)n(C3CCN(C(C)C[C@H](NC(=O)OC(C)(C)C)c4ccccc4)CC3)c2C1 (single isomer, unassigned) [Example 3]
Reply: 434 nM

Ask: Hello, please tell me recorded IC50 for this one: CC(C)c1nc(C2CCN(C(C)CC(NC(=O)C3CCC(F)(F)CC3)c3ccccc3)CC2)no1 (mixture of isomers)
Reply: 20.2 nM

Ask: Hello, please tell me recorded IC50 for this one: CC(C[C@H](NC(=O)C1CCC(F)(F)CC1)c1ccccc1)N1CCC(c2nnnn2C(C)C)CC1 (single isomer, unassigned) [Example 125]
Reply: 2.2 nM

====

Molecular target: HIV-1 fusion (gp160 induced cell-cell fusion; HeLa P4 cell line expressing CCR5 and CD4 / CHO-Tat10 cell line) (Homo sapiens, UniProt P51681)
Sequence (P51681 whole entry, the tested form may be a part): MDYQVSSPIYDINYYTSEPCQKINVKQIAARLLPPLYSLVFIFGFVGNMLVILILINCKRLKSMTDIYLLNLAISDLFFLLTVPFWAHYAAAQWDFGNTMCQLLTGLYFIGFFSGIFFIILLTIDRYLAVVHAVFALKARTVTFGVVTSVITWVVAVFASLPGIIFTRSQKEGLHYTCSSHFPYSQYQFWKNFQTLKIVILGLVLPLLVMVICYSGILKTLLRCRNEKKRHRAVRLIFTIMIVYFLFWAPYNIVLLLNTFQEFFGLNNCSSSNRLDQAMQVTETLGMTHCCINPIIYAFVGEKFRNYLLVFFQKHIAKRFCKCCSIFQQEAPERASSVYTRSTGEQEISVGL
Assay: gp160 induced cell-cell fusion assay
Type: cell-based
Details: HeLa P4 / CHO-Tat10 cells, read-out: IC50
OBSERVABLE: IC50 (nM)
The response must be a number in nM with no trailing unit.

Ask: Hello, please tell me recorded IC50 for this one: COC(=O)N1CCc2c(nc(C)n2C2CCN(C(C)C[C@H](NC(C)=O)c3ccccc3)CC2)C1 (single isomer, unassigned) [Example 73]
Reply: 9.1

Ask: Hello, please tell me recorded IC50 for this one: COC(=O)N1CCc2c(nc(C)n2C2CCN(C(C)C[C@H](NC(C)=O)c3ccccc3)CC2)C1 (single isomer, unassigned) [Example 72]
Reply: 2.4

Ask: Hello, please tell me recorded IC50 for this one: CC(=O)N[C@@H](CC(C)N1CCC(n2c(C)nc3c2CN(C(=O)C(C)C)CC3)CC1)c1cccc(F)c1 (stereo partly drawn) [Example 64]
Reply: 2

Ask: Hello, please tell me recorded IC50 for this one: CCCC(=O)N[C@@H](CC(C)N1CCC(n2c(C)nc3c2CN(C(=O)OC)CC3)CC1)c1cccc(F)c1 (stereo partly drawn) [Example 69]
Reply: 0.2

Ask: Hello, please tell me recorded IC50 for this one: CCOC(=O)N1CCc2c(nc(C)n2C2CCN(C(C)C[C@H](NC(=O)C(C)C)c3cccc(F)c3)CC2)C1 (single isomer, unassigned) [Example 95]
Reply: 5.5

Ask: Hello, please tell me recorded IC50 for this one: COC(=O)N[C@@H](CC(C)N1CCC(n2c(C)nc3c2CN(C(=O)OC)CC3)CC1)c1ccccc1 (single isomer, unassigned) [Example 13B]
Reply: 600
